# System: Enterobacter cloacae NR 2946
Binary call on MIC with cut-off 0.2 µg/mL: strictly below means y, and equality or higher means n.

compound: CCN(C)CC1CCN(c2c(F)cc3c(=O)c(C(=O)O)cn4c3c2OCN4C)C1 (centres unmarked)
cat: n
--
compound: CN1COc2c(N3CCCNCC3)c(F)cc3c(=O)c(C(=O)O)cn1c23
cat: y
--
compound: CN1COc2c(N3CCC(N)C3)c(F)cc3c(=O)c(C(=O)OCOC(=O)C(C)(C)C)cn1c23 (centres unmarked)
cat: n
--
compound: CN1CCN(c2c(F)cc3c(=O)c(C(=O)O)cn4c3c2OCN4C)CC1
cat: y

###

# measurementProtocol: acute toxicity by oral administration
# appliedConditions: mouse, in vivo, po
Catalogue of molecules with associated LD50
observable: LD50

molecule: CN1COc2c(N3CCC(N)C3)c(F)cc3c(=O)c(C(=O)O)cn1c23 (centres unmarked)
observed: > 2000 mg/kg
//
molecule: CN1CCN(c2c(F)cc3c(=O)c(C(=O)O)cn4c3c2OCN4C)CC1
observed: > 2000 mg/kg

###

// MIC collected for Enterococcus faecalis NR 2943

structureSmilesString: CN1CCN(c2c(F)cc3c(=O)c(C(=O)O)cn4c3c2OCN4CCF)CC1
targetOfAssay: Enterococcus faecalis NR 2943
scaleUnit: µg/mL
MIC: 12.5
//
structureSmilesString: CNC1CCN(c2c(F)cc3c(=O)c(C(=O)O)cn4c3c2OCN4C)CC1
targetOfAssay: Enterococcus faecalis NR 2943
scaleUnit: µg/mL
MIC: 6.25
//
structureSmilesString: CN1COc2c(N3CCOCC3)c(F)cc3c(=O)c(C(=O)O)cn1c23
targetOfAssay: Enterococcus faecalis NR 2943
scaleUnit: µg/mL
MIC: 12.5

###

// MIC collected for Enterococcus faecalis NR 2943

compound: CC1CN(c2c(F)cc3c(=O)c(C(=O)O)cn4c3c2OCN4C)CCN1C (stereo not drawn) [Example 36]
MIC (µg/mL): 3.13
//
compound: CN1CCN(c2c(F)cc3c(=O)c(C(=O)O)cn4c3c2OCN4C)CC1 [Example 5]
MIC (µg/mL): 3.13
//
compound: CCCN1CCN(c2c(F)cc3c(=O)c(C(=O)O)cn4c3c2OCN4C)CC1 [Example 43]
MIC (µg/mL): 6.25
//
compound: CC(=O)NCC1CCN(c2c(F)cc3c(=O)c(C(=O)O)cn4c3c2OCN4C)C1 (stereo not drawn) [Example 19]
MIC (µg/mL): 6.25
//
compound: CN1COc2c(N3CCC(CN)CC3)c(F)cc3c(=O)c(C(=O)O)cn1c23 [Example 12]
MIC (µg/mL): 3.13
//
compound: CC(=O)N1CCN(c2c(F)cc3c(=O)c(C(=O)O)cn4c3c2OCN4C)CC1 [Example 50]
MIC (µg/mL): 3.13
//
compound: CNC1CCN(c2c(F)cc3c(=O)c(C(=O)O)cn4c3c2OCN4C)C1 (stereo not drawn) [Example 31]
MIC (µg/mL): 12.5
//
compound: Cc1cn(-c2c(F)cc3c(=O)c(C(=O)O)cn4c3c2OCN4C)cn1 [Example 22]
MIC (µg/mL): 3.13
//
compound: CC(=O)CCN1CCN(c2c(F)cc3c(=O)c(C(=O)O)cn4c3c2OCN4C)CC1 [Example 51]
MIC (µg/mL): 12.5
//
compound: CN1COc2c(N3CCC(CN)C3)c(F)cc3c(=O)c(C(=O)O)cn1c23 (stereo not drawn) [Example 54]
MIC (µg/mL): 1.56
//
compound: CCNCC1CCN(c2c(F)cc3c(=O)c(C(=O)O)cn4c3c2OCN4C)C1 (stereo not drawn) [Example 18]
MIC (µg/mL): 1.56
//
compound: CNCC1CCN(c2c(F)cc3c(=O)c(C(=O)O)cn4c3c2OCN4C)C1 (stereo not drawn) [Example 17]
MIC (µg/mL): 1.56
//
compound: CN1COc2c(N3CCN(CC(=O)O)CC3)c(F)cc3c(=O)c(C(=O)O)cn1c23 [Example 45]
MIC (µg/mL): 50
//
compound: CN1COc2c(N3CCNC(=O)C3)c(F)cc3c(=O)c(C(=O)O)cn1c23 [Example 24]
MIC (µg/mL): 25
//
compound: CN1COc2c(N3CCC(O)CC3)c(F)cc3c(=O)c(C(=O)O)cn1c23 [Example 13]
MIC (µg/mL): 3.13
//
compound: CC1Oc2c(N3CCNCC3)c(F)cc3c(=O)c(C(=O)O)cn(c23)N1C (stereo not drawn) [Example 25]
MIC (µg/mL): 100
//
compound: CN1COc2c(N3CCN(CC(=O)c4ccccc4)CC3)c(F)cc3c(=O)c(C(=O)O)cn1c23 [Example 41]
MIC (µg/mL): 100
//
compound: CN1COc2c(N3CCCNCC3)c(F)cc3c(=O)c(C(=O)O)cn1c23 [Example 16]
MIC (µg/mL): 25

###

# Tested on: Proteus rettgeri ATCC 14505
# measurementProtocol: in vitro antibacterial activity, standard agar dilution method
# Format: cell-based
# appliedConditions: Providencia rettgeri, ATCC14505, aerobic, read-out: minimum inhibitory concentration (MIC)
Catalogue of compounds with associated MIC

compound: CCNCC1CCN(c2c(F)cc3c(=O)c(C(=O)O)cn4c3c2OCN4C)C1 (stereo not shown)
targetOfAssay: Proteus rettgeri ATCC 14505
MIC (mg/L): 0.39
--
compound: CN1COc2c(N3CCC(N)C3)c(F)cc3c(=O)c(C(=O)OCOC(=O)C(C)(C)C)cn1c23 (stereo not shown)
targetOfAssay: Proteus rettgeri ATCC 14505
MIC (mg/L): 6.25
--
compound: CN1COc2c(N3CCC(O)CC3)c(F)cc3c(=O)c(C(=O)O)cn1c23
targetOfAssay: Proteus rettgeri ATCC 14505
MIC (mg/L): 0.78
--
compound: CN1COc2c(N3CCS(=O)(=O)CC3)c(F)cc3c(=O)c(C(=O)O)cn1c23
targetOfAssay: Proteus rettgeri ATCC 14505
MIC (mg/L): 3.13

###

// MIC collected for Klebsiella pneumoniae FDA PCI 602

compound: CN1COc2c(N3CCS(=O)(=O)CC3)c(F)cc3c(=O)c(C(=O)O)cn1c23
MIC: 1.56 µg/mL
--
compound: CC1Oc2c(N3CCN(C)CC3)c(F)cc3c(=O)c(C(=O)O)cn(c23)N1C (centres unmarked)
MIC: 3.13 µg/mL
--
compound: CC1CN(c2c(F)cc3c(=O)c(C(=O)O)cn4c3c2OCN4C)CCN1C (centres unmarked)
MIC: 0.39 µg/mL
--
compound: C=CCN1CCN(c2c(F)cc3c(=O)c(C(=O)O)cn4c3c2OCN4C)CC1
MIC: 0.78 µg/mL
--
compound: CNC1CCN(c2c(F)cc3c(=O)c(C(=O)O)cn4c3c2OCN4C)CC1
MIC: 0.78 µg/mL
--
compound: CN1COc2c(N3CCN(CCF)CC3)c(F)cc3c(=O)c(C(=O)O)cn1c23
MIC: 0.39 µg/mL
--
compound: Cc1cn(-c2c(F)cc3c(=O)c(C(=O)O)cn4c3c2OCN4C)cn1
MIC: 0.39 µg/mL
--
compound: CCNC1CCN(c2c(F)cc3c(=O)c(C(=O)O)cn4c3c2OCN4C)CC1
MIC: 1.56 µg/mL
--
compound: CN1CCN(c2c(F)cc3c(=O)c(C(=O)O)cn4c3c2OCN4C)CC1
MIC: 0.1 µg/mL
--
compound: COC1CCN(c2c(F)cc3c(=O)c(C(=O)O)cn4c3c2OCN4C)CC1
MIC: 25 µg/mL
--
compound: CCN1CCN(c2c(F)cc3c(=O)c(C(=O)O)cn4c3c2OCN4C)CC1
MIC: 0.39 µg/mL
--
compound: CN1COc2c(N3CCC(N)C3)c(F)cc3c(=O)c(C(=O)OCOC(=O)C(C)(C)C)cn1c23 (centres unmarked)
MIC: 6.25 µg/mL
--
compound: CCN(C)CC1CCN(c2c(F)cc3c(=O)c(C(=O)O)cn4c3c2OCN4C)C1 (centres unmarked)
MIC: 1.56 µg/mL
--
compound: CN1COc2c(N3CCN(Cc4ccc(N)cc4)CC3)c(F)cc3c(=O)c(C(=O)O)cn1c23
MIC: 0.39 µg/mL
--
compound: CN1COc2c(N3CCC(CN)C3)c(F)cc3c(=O)c(C(=O)O)cn1c23 (centres unmarked)
MIC: 0.78 µg/mL
--
compound: CN1COc2c(N3CCC(N)CC3)c(F)cc3c(=O)c(C(=O)O)cn1c23
MIC: 0.78 µg/mL
--
compound: CN1COc2c(N3CCN(CC(=O)c4ccccc4)CC3)c(F)cc3c(=O)c(C(=O)O)cn1c23
MIC: 3.13 µg/mL

###

Catalogue of compounds with associated log10 of MIC
# Test system: Staphylococcus aureus NR 2855
# measurementProtocol: in vitro antibacterial activity, standard agar dilution method
# Assay type: cell-based
# appliedConditions: NR2855; Staphylococcus aureus NR 2855; aerobic; agar dilution; read-out: minimum inhibitory concentration (MIC)
observable: log10 of MIC (log10 of the value in µg/mL)

compound: CN1CCN(c2c(F)cc3c(=O)c(C(=O)O)cn4c3c2OCN4CCF)CC1
observed: 0.19
--
compound: Cc1cn(-c2c(F)cc3c(=O)c(C(=O)O)cn4c3c2OCN4C)cn1
observed: -0.41
--
compound: CNC1CCN(c2c(F)cc3c(=O)c(C(=O)O)cn4c3c2OCN4C)CC1
observed: 0.19
--
compound: CC1Oc2c(N3CCNCC3)c(F)cc3c(=O)c(C(=O)O)cn(c23)N1C (stereo not drawn)
observed: 1.10
--
compound: CC1CN(c2c(F)cc3c(=O)c(C(=O)O)cn4c3c2OCN4C)CCN1 (stereo not drawn)
observed: 0.19
--
compound: C=CCN1CCN(c2c(F)cc3c(=O)c(C(=O)O)cn4c3c2OCN4C)CC1
observed: -0.41
--
compound: COC1CCN(c2c(F)cc3c(=O)c(C(=O)O)cn4c3c2OCN4C)CC1
observed: -0.70
--
compound: CN1COc2c(N3CCS(=O)(=O)CC3)c(F)cc3c(=O)c(C(=O)O)cn1c23
observed: -0.11
